Target: Mitogen-activated protein kinase kinase kinase kinase 4 (Homo sapiens) (UniProt O95819)
Sequence (O95819 2-1239 limits assumed): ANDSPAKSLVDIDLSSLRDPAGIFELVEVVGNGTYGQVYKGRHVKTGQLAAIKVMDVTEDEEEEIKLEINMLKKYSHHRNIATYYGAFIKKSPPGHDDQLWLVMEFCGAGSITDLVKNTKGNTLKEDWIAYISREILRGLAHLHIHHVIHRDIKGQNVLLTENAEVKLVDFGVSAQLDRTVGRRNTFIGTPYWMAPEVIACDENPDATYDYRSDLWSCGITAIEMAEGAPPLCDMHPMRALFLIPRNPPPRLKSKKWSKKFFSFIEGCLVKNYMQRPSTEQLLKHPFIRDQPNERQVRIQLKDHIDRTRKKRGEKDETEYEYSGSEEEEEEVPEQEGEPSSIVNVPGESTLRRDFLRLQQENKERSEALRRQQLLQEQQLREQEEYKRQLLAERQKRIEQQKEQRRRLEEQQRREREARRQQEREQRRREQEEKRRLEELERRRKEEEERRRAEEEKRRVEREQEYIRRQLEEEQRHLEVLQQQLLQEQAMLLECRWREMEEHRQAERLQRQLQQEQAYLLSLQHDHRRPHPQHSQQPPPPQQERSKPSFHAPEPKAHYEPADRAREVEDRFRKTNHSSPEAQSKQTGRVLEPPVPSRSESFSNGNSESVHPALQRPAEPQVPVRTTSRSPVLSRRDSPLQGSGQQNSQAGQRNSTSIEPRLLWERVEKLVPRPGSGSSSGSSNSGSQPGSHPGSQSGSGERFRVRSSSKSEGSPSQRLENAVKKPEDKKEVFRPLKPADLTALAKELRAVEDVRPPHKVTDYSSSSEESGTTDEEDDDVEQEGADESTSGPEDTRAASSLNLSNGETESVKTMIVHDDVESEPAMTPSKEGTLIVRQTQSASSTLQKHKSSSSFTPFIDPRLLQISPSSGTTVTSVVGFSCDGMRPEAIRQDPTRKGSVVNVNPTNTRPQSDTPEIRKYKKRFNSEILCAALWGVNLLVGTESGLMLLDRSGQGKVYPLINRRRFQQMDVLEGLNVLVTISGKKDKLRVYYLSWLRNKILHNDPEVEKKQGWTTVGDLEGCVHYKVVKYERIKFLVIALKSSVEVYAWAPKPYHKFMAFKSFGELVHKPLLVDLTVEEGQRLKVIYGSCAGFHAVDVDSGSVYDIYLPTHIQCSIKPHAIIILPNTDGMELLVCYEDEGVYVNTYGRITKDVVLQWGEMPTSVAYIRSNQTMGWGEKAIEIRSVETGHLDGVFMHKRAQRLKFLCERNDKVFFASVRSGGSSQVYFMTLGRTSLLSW
Conditions: at 0.1 µM
Description: GSK_PKIS: MAP4K4 mean inhibition at 0.1 uM [Nanosyn]
Listed here are compounds together with their documented inhibition.

mol smiles: CCn1c(-c2nonc2N)nc2cnc(Oc3cccc(NC(=O)c4ccc(N(C)C)cc4)c3)cc21
inhibition / %: 3.32
//
mol smiles: CC(=O)Nc1cccc(C#Cc2cncnc2Nc2ccc(OCc3cccc(F)c3)c(Cl)c2)c1
inhibition / %: 2.7
//
mol smiles: Nc1nc(-c2ccc(F)cc2)c(-c2ccc3ncccc3n2)s1
inhibition / %: 17.7
//
mol smiles: CS(=O)(=O)CCNCc1coc(-c2ccc3ncnc(Nc4ccc(OCc5ccccc5)cc4)c3c2)c1
inhibition / %: 3.41
//
mol smiles: COc1ccc(-c2nn3ncccc3c2-c2ccnc(Nc3ccc4c(c3)OCCO4)n2)cc1
inhibition / %: 0.61
//
mol smiles: CCCN1CCC(c2ccc(Nc3nc(Nc4cc(F)ccc4C(N)=O)c4cc[nH]c4n3)c(OC)c2)CC1
inhibition / %: 28.1
//
mol smiles: COC(=O)Nc1nc2ccc(Oc3ccc(NC(=O)Nc4cccc(Cl)c4)cc3)cc2[nH]1
inhibition / %: 0.19
//
mol smiles: CC(C)COC(=O)c1ccc2c(c1)/C(=C/Nc1ccc(S(N)(=O)=O)cc1)C(=O)N2
inhibition / %: 14.5
//
mol smiles: COc1cccc(-n2ncc3c(N/N=C/c4ccc(F)cc4)ncnc32)c1
inhibition / %: 5.23
//
mol smiles: Fc1cccc(COc2ccc(Nc3ncnc4sc(-c5ccco5)cc34)cc2Cl)c1
inhibition / %: 3.43
//
mol smiles: CCc1nn2ncccc2c1-c1ccnc(NC2CC2)n1
inhibition / %: 0.62
//
mol smiles: COc1cccc(-c2c[nH]c3c(N/N=C/c4ccncc4)ncnc23)c1
inhibition / %: 26
//
mol smiles: CCOc1ccc2c(-c3ccnc(Nc4cccc(C(F)(F)F)c4)n3)cnn2n1
inhibition / %: 0.65
//
mol smiles: CN1CCC(n2cnc(-c3ccc(F)cc3)c2-c2ccnc(N)n2)CC1
inhibition / %: 2.95

###

Target: Cyclin-dependent kinase 2 (Homo sapiens);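 further: mean inhibition of CDK2 in complex with cyclin E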
Conditions: at 0.1 µM

mol smiles: COc1ccc2c(-c3ccnc(Nc4cccc(OC(F)(F)F)c4)n3)cnn2n1
inhibition, %: 14.8
//
mol smiles: Cc1ccc(O)cc1Nc1ccnc2cc(-c3ccccn3)ccc12
inhibition, %: 3.98
//
mol smiles: CC(C)COC(=O)c1ccc2c(c1)/C(=C/Nc1ccc(S(N)(=O)=O)cc1)C(=O)N2
inhibition, %: 66.2
//
mol smiles: CCn1c(-c2nonc2N)nc2cnc(Oc3cccc(NC(=O)c4ccc(N(C)C)cc4)c3)cc21
inhibition, %: 1.65
//
mol smiles: NS(=O)(=O)c1ccc(Nc2ncc(-c3ccccc3)o2)cc1
inhibition, %: 56.2
//
mol smiles: N#Cc1c(NC(=O)c2ccc(F)cc2)sc2c1CCCC2
inhibition, %: 0.42
//
mol smiles: Nc1ncc(-c2cccc(S(N)(=O)=O)c2)c2scc(-c3ccc(F)c(Cl)c3)c12
inhibition, %: 2.68
//
mol smiles: CCc1nn2ncccc2c1-c1ccnc(NC2CC2)n1
inhibition, %: 2.25
//
mol smiles: Nc1nc(-c2cccc(Cl)c2)c(-c2ccc3ncccc3n2)s1
inhibition, %: 3.69
//
mol smiles: CS(=O)(=O)CCNCc1coc(-c2ccc3ncnc(Nc4ccc(OCc5ccccc5)cc4)c3c2)c1
inhibition, %: 1.53
//
mol smiles: COc1cc2c(cc1Nc1nc(Nc3ccsc3C(N)=O)c3cc[nH]c3n1)N(C(=O)CN(C)C)CCC2(C)C
inhibition, %: 8.82
//
mol smiles: CS(=O)(=O)CCNCc1ccc(-c2ccc3ncnc(Nc4ccc(OCc5ccccc5)c(C(F)(F)F)c4)c3c2)o1
inhibition, %: 2.59
//
mol smiles: Nc1nc(-c2ccc(F)cc2)c(-c2ccc3ncccc3n2)s1
inhibition, %: 6.09
//
mol smiles: c1ccc(-c2nc3n(c2-c2ccc4c(c2)OCO4)CCC3)nc1
inhibition, %: 2.41
//
mol smiles: CC(=O)NCc1cccc(C#Cc2cncnc2Nc2ccc(OCc3cccc(F)c3)c(Cl)c2)c1
inhibition, %: 1.24
